meta.source: ChEMBL document CHEMBL1139975

Assay: Cmax in rat at 2 mg/kg, iv and 10 mg/kg, po
Format: ADME, organism-based
Settings: in vivo
experimentalEndpoint: Cmax (µM)
Give bare numbers, in µM.

Ask: What does the record list as Cmax for COc1ccccc1CN1Cc2cc(OC(F)(F)F)ccc2C1=N ?
Reply: 0.215

* * *

Target: Glutamate receptor ionotropic, NMDA 2B (Homo sapiens, UniProt Q05586+Q13224)
Sequence (Q13224 whole entry, one chain of several): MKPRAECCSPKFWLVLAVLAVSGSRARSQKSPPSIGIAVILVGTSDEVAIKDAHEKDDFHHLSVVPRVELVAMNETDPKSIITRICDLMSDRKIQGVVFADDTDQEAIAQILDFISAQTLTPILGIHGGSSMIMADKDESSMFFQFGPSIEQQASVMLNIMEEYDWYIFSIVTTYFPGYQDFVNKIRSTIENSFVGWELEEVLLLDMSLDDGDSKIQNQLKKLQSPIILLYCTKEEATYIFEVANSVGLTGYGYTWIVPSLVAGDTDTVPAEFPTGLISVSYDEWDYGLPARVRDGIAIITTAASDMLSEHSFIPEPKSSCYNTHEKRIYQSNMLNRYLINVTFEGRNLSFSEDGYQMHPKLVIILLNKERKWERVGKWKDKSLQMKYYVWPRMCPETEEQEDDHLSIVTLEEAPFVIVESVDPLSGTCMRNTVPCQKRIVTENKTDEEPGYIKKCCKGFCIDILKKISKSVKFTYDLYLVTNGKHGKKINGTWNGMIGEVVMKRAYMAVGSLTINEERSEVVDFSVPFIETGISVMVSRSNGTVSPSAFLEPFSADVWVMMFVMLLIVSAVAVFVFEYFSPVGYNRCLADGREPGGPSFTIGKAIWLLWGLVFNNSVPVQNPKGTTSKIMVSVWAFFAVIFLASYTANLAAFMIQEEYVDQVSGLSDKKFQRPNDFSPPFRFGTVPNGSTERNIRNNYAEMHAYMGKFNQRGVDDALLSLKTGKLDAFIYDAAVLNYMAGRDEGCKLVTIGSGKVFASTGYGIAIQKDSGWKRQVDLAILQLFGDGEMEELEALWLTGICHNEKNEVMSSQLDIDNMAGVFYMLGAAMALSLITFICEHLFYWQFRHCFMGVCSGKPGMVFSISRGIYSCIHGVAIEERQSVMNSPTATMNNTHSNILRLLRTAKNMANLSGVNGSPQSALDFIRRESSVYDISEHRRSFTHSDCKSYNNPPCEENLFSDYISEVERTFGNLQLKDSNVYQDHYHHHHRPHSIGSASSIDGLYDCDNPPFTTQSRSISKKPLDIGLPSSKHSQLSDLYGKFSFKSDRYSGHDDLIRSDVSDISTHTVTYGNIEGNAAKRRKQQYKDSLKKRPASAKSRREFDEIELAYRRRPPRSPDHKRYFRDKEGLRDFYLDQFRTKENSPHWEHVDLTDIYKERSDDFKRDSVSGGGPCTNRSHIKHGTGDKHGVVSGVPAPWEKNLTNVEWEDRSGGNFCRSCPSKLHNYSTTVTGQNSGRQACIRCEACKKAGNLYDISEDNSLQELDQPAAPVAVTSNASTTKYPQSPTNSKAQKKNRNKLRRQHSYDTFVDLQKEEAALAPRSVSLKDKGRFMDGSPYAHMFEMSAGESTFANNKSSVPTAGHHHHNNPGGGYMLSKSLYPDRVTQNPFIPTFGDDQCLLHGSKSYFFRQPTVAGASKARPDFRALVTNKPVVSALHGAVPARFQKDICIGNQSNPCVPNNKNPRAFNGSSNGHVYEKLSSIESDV
Experiment: Antagonist activity at NMDA NR2B receptor assessed as calcium flux
Assay type: functional
# rule met = IC50 below 1000 nM (exclusive); rule not met = IC50 at/above 1000 nM

Some solved cases for reference:
Ask: Item COc1ccccc1C1CN=C(c2ccc(OC(F)(F)F)c(Cl)c2)N1 (stereo not given) : IC50 beneath 1000 nM, strictly?
Reply: rule met

Ask: Try the compound FC(F)(F)Oc1ccc(C2=NC(c3cccc(Cl)c3)CN2)cc1Cl (stereo not given)
Reply: rule met

Ask: Try the compound Cc1cc(C)cc(CN2Cc3cc(OC(F)(F)F)ccc3C2=N)c1
Reply: rule met

Ask: Try the compound FC(F)(F)Oc1ccc(C2=NCC(c3ccccc3C(F)(F)F)N2)cc1Cl (stereo not given)
Reply: rule not met

Ask: Try the compound N=C1c2ccc(OC(F)(F)F)cc2CN1Cc1cccc(Cl)c1
Reply: rule met

Continuing:
Ask: Item FC(F)(F)Oc1ccc(C2=NC(c3cccc(Cl)c3)CN2)cc1 (stereo not given) : IC50 beneath 1000 nM, strictly?
Reply: rule not met

Ask: Try the compound N=C1c2ccc(OC(F)(F)F)cc2CN1Cc1cccc2ccoc12
Reply: rule met

Ask: Try the compound COc1ccccc1CN1Cc2cc(OC(F)(F)F)ccc2C1=N
Reply: rule met

Ask: Try the compound FC(F)(F)Oc1ccc(C2=NCC(c3ccccc3OC(F)(F)F)N2)cc1Cl (stereo not given)
Reply: rule not met

Ask: Try the compound FC(F)(F)Oc1ccc(C2=NC(c3cc(Cl)cc(Cl)c3)CN2)cc1Cl (stereo not given)
Reply: rule not met
